- TESTED_SYSTEM: human telomerase RT (TERT) (Homo sapiens)
- Construct: of human telomerase RT (TERT) by NRTI triphosphates in a biochemical assay in MCF-7 cell lysate; endogenous in cells
- Sequence (O14746 whole entry): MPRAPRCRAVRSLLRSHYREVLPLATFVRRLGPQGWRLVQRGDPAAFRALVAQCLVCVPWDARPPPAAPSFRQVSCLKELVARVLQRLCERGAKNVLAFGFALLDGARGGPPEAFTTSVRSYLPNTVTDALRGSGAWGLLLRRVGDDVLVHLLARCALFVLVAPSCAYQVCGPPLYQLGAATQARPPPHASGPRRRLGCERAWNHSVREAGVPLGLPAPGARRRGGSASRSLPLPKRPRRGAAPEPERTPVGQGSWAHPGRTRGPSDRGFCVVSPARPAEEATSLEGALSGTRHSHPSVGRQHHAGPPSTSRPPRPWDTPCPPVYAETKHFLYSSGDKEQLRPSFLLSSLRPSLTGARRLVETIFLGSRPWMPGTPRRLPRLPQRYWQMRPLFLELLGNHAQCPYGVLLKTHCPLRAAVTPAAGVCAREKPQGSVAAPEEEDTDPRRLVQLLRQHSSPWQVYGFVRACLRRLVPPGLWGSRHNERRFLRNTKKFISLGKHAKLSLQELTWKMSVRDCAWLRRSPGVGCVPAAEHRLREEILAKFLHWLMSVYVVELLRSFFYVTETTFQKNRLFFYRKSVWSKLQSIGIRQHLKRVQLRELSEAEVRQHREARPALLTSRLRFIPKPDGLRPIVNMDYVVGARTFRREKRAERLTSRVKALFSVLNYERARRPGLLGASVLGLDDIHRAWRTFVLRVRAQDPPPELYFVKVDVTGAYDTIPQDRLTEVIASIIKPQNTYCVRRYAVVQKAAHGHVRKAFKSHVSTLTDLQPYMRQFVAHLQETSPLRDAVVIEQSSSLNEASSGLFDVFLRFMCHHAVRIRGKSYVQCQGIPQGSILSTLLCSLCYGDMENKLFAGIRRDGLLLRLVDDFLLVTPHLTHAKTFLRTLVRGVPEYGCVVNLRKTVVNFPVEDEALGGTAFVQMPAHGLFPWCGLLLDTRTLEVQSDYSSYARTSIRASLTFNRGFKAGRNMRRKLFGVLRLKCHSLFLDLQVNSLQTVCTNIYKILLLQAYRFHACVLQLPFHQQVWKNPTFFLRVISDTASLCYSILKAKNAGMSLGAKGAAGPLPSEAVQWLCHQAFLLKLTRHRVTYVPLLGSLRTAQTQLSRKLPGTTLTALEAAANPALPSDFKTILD
- ASSAY_EXPLANATION: Telomerase activity assay in MCF-7 cell lysate
- ASSAY_CONTEXT: NRTI triphosphates
pIC50: −log10 of the molar value.

{"MOL_SMILES": "Cc1cn([C@H]2C=C[C@@H](COP(=O)(O)OP(=O)(O)OP(=O)(O)O)O2)c(=O)[nH]c1=O", "pIC50": 4.82}

###

- Test system: L1 retrotransposition reporter in HeLa cells
- ASSAY_EXPLANATION: LINE-1 dual luciferase retrotransposition assay in HeLa cells
- Type: cell-based, human
- ASSAY_CONTEXT: HeLa cells, stable dual luciferase L1 reporter, normalized to cell viability; n = 3 wells
pIC50: −log10 of the molar value.

{"MOLECULE": "Nc1ccn([C@@H]2CS[C@H](CO)O2)c(=O)n1 [3TC, lamivudine]", "pIC50": 6.05}

###

Catalogue of IC50 readings, one per entry.
- TESTED_SYSTEM: ORF2p core (Homo sapiens, UniProt O00370)
- Construct: His6-MBP-3C-ORF2p (238-1061, ORFeus-Hs) in pET41; His6-MBP (3C protease site) (N, cleaved yes); made in house; host or cells: E. coli
- ASSAY_EXPLANATION: Gel-based L1 RT assay, ORF2p core, inhibition by NRTI triphosphates
- Type: biochemical
- ASSAY_CONTEXT: NTP forms of NRTIs; 100 nM dNTP mixture, one minute at 37 °C

{"MOL_SMILES": "Nc1ccn([C@@H]2CS[C@H](CO)O2)c(=O)n1", "TESTED_SYSTEM": "ORF2p core (Homo sapiens, UniProt O00370)", "IC50": "5000 to 7000 nM"}
{"MOL_SMILES": "C=C1[C@H](CO)[C@@H](O)C[C@@H]1n1cnc2c(=O)[nH]c(N)nc21", "TESTED_SYSTEM": "ORF2p core (Homo sapiens, UniProt O00370)", "IC50": "400 to 600 nM"}
{"MOL_SMILES": "Cc1cn([C@H]2C=C[C@@H](CO)O2)c(=O)[nH]c1=O", "TESTED_SYSTEM": "ORF2p core (Homo sapiens, UniProt O00370)", "IC50": "400 to 600 nM"}
{"MOL_SMILES": "Nc1nc2c(ncn2[C@H]2C=C[C@@H](CO)C2)c(=O)[nH]1", "TESTED_SYSTEM": "ORF2p core (Homo sapiens, UniProt O00370)", "IC50": "5000 to 7000 nM"}

###

Listed next: entries and their corresponding pIC50.
- TESTED_SYSTEM: ORF2p core (Homo sapiens, UniProt O00370)
- Construct: His6-MBP-3C-ORF2p (238-1061, ORFeus-Hs) in pET41; His6-MBP (3C protease site) (N, cleaved yes); made in house; host or cells: E. coli
- ASSAY_EXPLANATION: Homogeneous time-resolved fluorescence (HTRF) ORF2p RT assay
- Format: biochemical
- ASSAY_CONTEXT: HTRF; NRTIs as triphosphates; n = 3 wells
- Procedure: ORF2p core was preincubated with a template:primer containing a single site for the incorporation of a given nucleotide analogue. The primer/template sequence shown in the panel a illustrates the case of single incorporation of 3TC, with a single G for incorporation; the incoming template sequence for entecavir and carbovir has a single C, and for d4T a single A, each at position labeled “N”. […]
pIC50: −log10 of the molar value.
MEASURED_QUANTITY: pIC50

{"COMPOUND": "CC(C)Nc1cccnc1N1CCN(C(=O)c2cc3cc(NS(C)(=O)=O)ccc3[nH]2)CC1 [Delavirdine, delavirdine]", "MEASURED_QUANTITY": "pIC50", "READING": "< 4.52"}
{"COMPOUND": "Cc1cc(C#N)cc(C)c1Oc1nc(Nc2ccc(C#N)cc2)nc(N)c1Br [Etravirine, etravirine]", "MEASURED_QUANTITY": "pIC50", "READING": "< 4.52"}
{"COMPOUND": "O=C1Nc2ccc(Cl)cc2[C@@](C#CC2CC2)(C(F)(F)F)O1 [Efavirenz, efavirenz]", "MEASURED_QUANTITY": "pIC50", "READING": "< 4.52"}
{"COMPOUND": "Cc1ccnc2c1NC(=O)c1cccnc1N2C1CC1 [Nevirapine, nevirapine]", "MEASURED_QUANTITY": "pIC50", "READING": "< 3.00"}
{"COMPOUND": "Cc1cc(/C=C/C#N)cc(C)c1Nc1ccnc(Nc2ccc(C#N)cc2)n1 [Rilpivirine, rilpivirine]", "MEASURED_QUANTITY": "pIC50", "READING": "< 4.52"}
{"COMPOUND": "O=C(O)P(=O)(O)O [Foscarnet, foscarnet]", "MEASURED_QUANTITY": "pIC50", "READING": "< 4.00"}

###

Recorded IC50 index, fold = IC50 (drug, µM) ÷ [dNTP] (natural counterpart, 0.1 µM), one value per entry.
- TESTED_SYSTEM: ORF2p core (Homo sapiens, UniProt O00370)
- Construct: His6-MBP-3C-ORF2p (238-1061, ORFeus-Hs) in pET41; His6-MBP (3C protease site) (N, cleaved yes); made in house; host or cells: E. coli
- ASSAY_EXPLANATION: Gel-based L1 RT assay, ORF2p core, inhibition by NRTI triphosphates
- Type: biochemical
- ASSAY_CONTEXT: 100 nM dNTP mixture
MEASURED_QUANTITY: IC50 index, fold = IC50 (drug, µM) ÷ [dNTP] (natural counterpart, 0.1 µM) (fold)

{"MOL_SMILES": "Cc1cn([C@H]2C=C[C@@H](CO)O2)c(=O)[nH]c1=O", "READING": 4.1}
{"MOL_SMILES": "Nc1nc2c(ncn2[C@H]2C=C[C@@H](CO)C2)c(=O)[nH]1", "READING": 64}
{"MOL_SMILES": "Nc1ccn([C@@H]2CS[C@H](CO)O2)c(=O)n1", "READING": 56}
{"MOL_SMILES": "C=C1[C@H](CO)[C@@H](O)C[C@@H]1n1cnc2c(=O)[nH]c(N)nc21", "READING": 5.4}
